Recorded pKd by entry
Molecular target: T1, recombinant LILRB1 ECD (human, UniProt Q8NHL6 24-461)
T1 construct: also called biotinylated LILRB1 ECD
T1 sequence (Q8NHL6 24-461 limits assumed): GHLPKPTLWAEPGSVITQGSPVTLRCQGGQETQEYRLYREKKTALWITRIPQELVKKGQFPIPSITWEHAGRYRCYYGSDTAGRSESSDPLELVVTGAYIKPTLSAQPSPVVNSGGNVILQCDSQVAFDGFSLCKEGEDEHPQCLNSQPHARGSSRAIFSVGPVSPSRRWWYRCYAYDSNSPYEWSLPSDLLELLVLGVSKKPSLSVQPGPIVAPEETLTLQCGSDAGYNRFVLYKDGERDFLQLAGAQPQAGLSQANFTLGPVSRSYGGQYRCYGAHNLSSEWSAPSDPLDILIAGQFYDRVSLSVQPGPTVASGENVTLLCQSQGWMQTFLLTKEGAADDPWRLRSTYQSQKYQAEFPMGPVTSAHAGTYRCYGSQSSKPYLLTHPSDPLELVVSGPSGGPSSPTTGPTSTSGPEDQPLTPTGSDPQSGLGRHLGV
Test: BLI, IgG on AHC sensor, ECD in solution
Protocol: Briefly, IgGs were captured on anti-human capture (AHC) biosensors (Sartorius). […] Subsequently, the sensors were dipped into 1× Kinetics Buffer to measure the dissociation over 420 s. All sensorgrams were double referenced against 1× Kinetics Buffer and unloaded […] sensors to subtract sensor drifts and potential reference binding of the analytes. The affinities were determined by applying a 1:1 binding model.
Answer as the number alone; pKd is minus log10 of concentration in mol/L.

Before answering, review these 3 worked examples.
binder	numeric_value
A-004 (antibody, V domains shown, tested as IgG) VH: QVQLVQSGAEVKKPGSSVKVSCKASGGTFRTKAIAWVRQAPGQGLEWMGGIIPIFSTANYAPKFQGRVTITADESTSTAYMELSSLRSEDTAVYYCAKDLGTYSSGWPYYYGMDVWGQGTTVTVSS VL: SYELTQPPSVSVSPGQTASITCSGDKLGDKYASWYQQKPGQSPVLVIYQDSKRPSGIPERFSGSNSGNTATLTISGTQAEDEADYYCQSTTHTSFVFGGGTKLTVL	7.89
A-033 (antibody, V domains shown, tested as IgG) VH: QVQLVQSGAEVKKPGSSVKVSCKASGYTFSSHAMSWVRQAPGQGLEWMGGIIPTFKTAVFAQKFQGRVTITADESTSTAYMELSSLRSEDTAVYYCAKGPPVGSSSWYTDWYFDLWGRGTLVTVSS VL: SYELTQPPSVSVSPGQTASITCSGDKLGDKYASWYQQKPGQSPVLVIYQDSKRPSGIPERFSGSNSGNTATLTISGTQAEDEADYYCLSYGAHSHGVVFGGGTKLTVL	9.30
A-011 (antibody, V domains shown, tested as IgG) VH: QVQLVQSGAEVKKPGSSVKVSCKASGGSFSHSAFSWVRQAPGQGLEWMGSIIPAFYTANYAQKFQGRVTITADESTSTAYMELSSLRSEDTAVYYCAKDLGTYSSGWPYYYGMDVWGQGTTVTVSS VL: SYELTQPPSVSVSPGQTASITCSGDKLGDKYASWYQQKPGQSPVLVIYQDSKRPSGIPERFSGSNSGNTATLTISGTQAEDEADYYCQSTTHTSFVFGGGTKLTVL	8.03

For reference, reported pKd for A-036 (antibody, V domains shown, tested as IgG) VH: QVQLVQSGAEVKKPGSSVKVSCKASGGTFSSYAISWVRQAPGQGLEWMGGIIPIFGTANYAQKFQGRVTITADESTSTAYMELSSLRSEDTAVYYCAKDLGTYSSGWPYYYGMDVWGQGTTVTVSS VL: SYELTQPPSVSVSPGQTASITCSGDKLGDKYASWYQQKPGQSPVLVIYQDSKRPSGIPERFSGSNSGNTATLTISGTQAEDEADYYCQLTHLTIYVFGGGTKLTVL stands at 7.45
